Known MCC of a selection of compounds
Test system: HEL (human embryonic lung)
Test: Minimal cytotoxic concentration, required to alter microscopically detectable cell morphology

compound string	MCC [µM]
CCCCCc1ccc(-c2cc3cn([C@H]4C[C@H](O)[C@@H](CO)O4)c(=O)nc3s2)cc1	50
CCCc1ccc(-c2cc3cn([C@H]4C[C@H](O)[C@@H](CO)O4)c(=O)nc3s2)cc1	80
CCCCc1ccc(-c2cc3cn([C@H]4C[C@H](O)[C@@H](CO)O4)c(=O)nc3s2)cc1	50
CCCCCCCCc1cc2cn([C@H]3C[C@H](O)[C@@H](CO)O3)c(=O)nc2s1	20

----------
System: Human alphaherpesvirus 3
Assay: Antiviral activity against Varicella-Zoster virus (OKA)
Assay type: functional, organism-based

compound string	unit string	EC50
CCCCCc1ccc(-c2cc3cn([C@H]4C[C@H](O)[C@@H](CO)O4)c(=O)nc3s2)cc1	nM	25
CCCCc1ccc(-c2cc3cn([C@H]4C[C@H](O)[C@@H](CO)O4)c(=O)nc3s2)cc1	nM	28
CCCc1ccc(-c2cc3cn([C@H]4C[C@H](O)[C@@H](CO)O4)c(=O)nc3s2)cc1	nM	90
CCCCCCCc1ccc(-c2cc3cn([C@H]4C[C@H](O)[C@@H](CO)O4)c(=O)nc3s2)cc1	nM	270
CCCCCCc1ccc(-c2cc3cn([C@H]4C[C@H](O)[C@@H](CO)O4)c(=O)nc3s2)cc1	nM	80
CCCCCCCCc1cc2cn([C@H]3C[C@H](O)[C@@H](CO)O3)c(=O)nc2s1	nM	2
Nc1nc2c(ncn2COCCO)c(=O)[nH]1	nM	1100
CCc1ccc(-c2cc3cn([C@H]4C[C@H](O)[C@@H](CO)O4)c(=O)nc3s2)cc1	nM	200

----------
Known MCC of a selection of compounds
Tested on: HEL (human embryonic lung)
Assay: Minimal cytotoxic concentration, required to alter microscopically detectable cell morphology
endpoint label: MCC (µM)

compound	endpoint label	unit string	qual	reported measurement
CCc1ccc(-c2cc3cn([C@H]4C[C@H](O)[C@@H](CO)O4)c(=O)nc3s2)cc1	MCC	µM	>	200
Nc1nc2c(ncn2COCCO)c(=O)[nH]1 [ACYCLOVIR]	MCC	µM	>	200
CCCCCCCc1ccc(-c2cc3cn([C@H]4C[C@H](O)[C@@H](CO)O4)c(=O)nc3s2)cc1	MCC	µM	=	50
CCCCCCCCc1ccc(-c2cc3cn([C@H]4C[C@H](O)[C@@H](CO)O4)c(=O)nc3s2)cc1	MCC	µM	≥	20
CCCCCCc1ccc(-c2cc3cn([C@H]4C[C@H](O)[C@@H](CO)O4)c(=O)nc3s2)cc1	MCC	µM	=	200

The reported numbers originate from ChEMBL document CHEMBL1146720.
